Taken from paper PMC9848300.

System: SNB-75
ASSAY_METHOD_TEXT: NCI 60 antitumor screening (single dose / five doses)
Type: cell-based
CONDITION_DESCRIPTION: Homo sapiens; SNB-75 (CNS cancer), single dose 10 μM; read-out: Growth inhibition percentage (GI %)
PROPERTY_MEASURED: inhibition at 10 µM (%)
# value in %; strip the unit string

The compound listed as O=C1Nc2ccc(Cl)cc2/C1=N\Nc1nc(N/N=C2/C(=O)Nc3ccc(Cl)cc32)nc(N2CCOCC2)n1 [compound 8b] has a reported inhibition at 10 µM of 101

The compound listed as Oc1ccccc1/C=N/Nc1nc(N/N=C/c2ccccc2O)nc(N2CCCCC2)n1 [compound 7a] has a reported inhibition at 10 µM of 25.6

The compound listed as C(=N\Nc1nc(N/N=C/c2ccc3c(c2)OCO3)nc(N2CCCCC2)n1)/c1ccc2c(c1)OCO2 [compound 7k] has a reported inhibition at 10 µM of -13.1

The compound listed as Brc1cccc(/C=N/Nc2nc(N/N=C/c3cccc(Br)c3)nc(N3CCCCC3)n2)c1 [compound 7c] has a reported inhibition at 10 µM of -17.3

The compound listed as Brc1cccc(/C=N/Nc2nc(N/N=C/c3cccc(Br)c3)nc(N3CCOCC3)n2)c1 [compound 6c] has a reported inhibition at 10 µM of -7.5

The compound listed as Brc1ccccc1/C=N/Nc1nc(N/N=C/c2ccccc2Br)nc(N2CCCCC2)n1 [compound 7b] has a reported inhibition at 10 µM of -2.35

The compound listed as Fc1cccc(/C=N/Nc2nc(N/N=C/c3cccc(F)c3)nc(N3CCCCC3)n2)c1 [compound 7e] has a reported inhibition at 10 µM of -14.6

The compound listed as CN(C)c1ccc(/C=N/Nc2nc(N/N=C/c3ccc(N(C)C)cc3)nc(N3CCOCC3)n2)cc1 [compound 6g] has a reported inhibition at 10 µM of 12.6

The compound listed as Fc1cccc(Cl)c1/C=N/Nc1nc(N/N=C/c2c(F)cccc2Cl)nc(N2CCCCC2)n1 [compound 7l] has a reported inhibition at 10 µM of 62.5

The compound listed as Oc1ccc(/C=N/Nc2nc(N/N=C/c3ccc(O)c(O)c3)nc(N3CCOCC3)n2)cc1O [compound 6j] has a reported inhibition at 10 µM of -1.54

The compound listed as CN(C)c1ccc(/C=N/Nc2nc(N/N=C/c3ccc(N(C)C)cc3)nc(N3CCCCC3)n2)cc1 [compound 7g] has a reported inhibition at 10 µM of -1.39

The compound listed as Oc1ccccc1/C=N/Nc1nc(N/N=C/c2ccccc2O)nc(N2CCOCC2)n1 [compound 6a] has a reported inhibition at 10 µM of 104

The compound listed as Brc1ccccc1/C=N/Nc1nc(N/N=C/c2ccccc2Br)nc(N2CCOCC2)n1 [compound 6b] has a reported inhibition at 10 µM of -31.7

The compound listed as Clc1cccc(/C=N/Nc2nc(N/N=C/c3cccc(Cl)c3Cl)nc(N3CCCCC3)n2)c1Cl [compound 7h] has a reported inhibition at 10 µM of -4.05

The compound listed as COC(=O)C(Cc1ccccc1)Nc1nc(NC(Cc2ccccc2)C(=O)OC)nc(N2CCOCC2)n1 (centres unmarked) [compound 8c] has a reported inhibition at 10 µM of 9.51

The compound listed as Clc1cccc(/C=N/Nc2nc(N/N=C/c3cccc(Cl)c3)nc(N3CCOCC3)n2)c1 [compound 6d] has a reported inhibition at 10 µM of -2.64

The compound listed as Fc1cccc(Cl)c1/C=N/Nc1nc(N/N=C/c2c(F)cccc2Cl)nc(N2CCOCC2)n1 [compound 6l] has a reported inhibition at 10 µM of 9.55

The compound listed as O=C(NNc1nc(NNC(=O)c2ccccc2)nc(N2CCOCC2)n1)c1ccccc1 [compound 8d] has a reported inhibition at 10 µM of 9.11

The compound listed as Fc1cccc(/C=N/Nc2nc(N/N=C/c3cccc(F)c3)nc(N3CCOCC3)n2)c1 [compound 6e] has a reported inhibition at 10 µM of 18.3

The compound listed as Clc1cccc(/C=N/Nc2nc(N/N=C/c3cccc(Cl)c3)nc(N3CCCCC3)n2)c1 [compound 7d] has a reported inhibition at 10 µM of -2.48

The compound listed as Clc1cccc(/C=N/Nc2nc(N/N=C/c3cccc(Cl)c3Cl)nc(N3CCOCC3)n2)c1Cl [compound 6h] has a reported inhibition at 10 µM of -19.6

The compound listed as C(=N\Nc1nc(N/N=C/c2ccc3c(c2)OCO3)nc(N2CCOCC2)n1)/c1ccc2c(c1)OCO2 [compound 6k] has a reported inhibition at 10 µM of 13.4

The compound listed as Oc1ccc(/C=N/Nc2nc(N/N=C/c3ccc(O)c(O)c3)nc(N3CCCCC3)n2)cc1O [compound 7j] has a reported inhibition at 10 µM of -4
